Recorded measurements of MIC, one per entry
test system: Staphylococcus aureus; experiment: Antibacterial activity against Staphylococcus aureus ATCC 29213 by CLSI method; format: functional
Value expressed in µg/mL; do not type the unit.

[
  {
    "STRUCTURE": "CCCCCN(C)Cc1cc(C(=O)O)ccc1NC(=O)c1cc2cc(F)cc(NC)c2[nH]c1=O",
    "TESTED ON": "Staphylococcus aureus",
    "VALUE UNITS": "µg/mL",
    "MIC": 0.5
  },
  {
    "STRUCTURE": "CNc1cc(F)cc2c(O)c(C(=O)Nc3ccc(C(=O)O)cc3)c(=O)[nH]c12",
    "TESTED ON": "Staphylococcus aureus",
    "VALUE UNITS": "µg/mL",
    "MIC": 0.25
  },
  {
    "STRUCTURE": "CNc1cc(F)cc2cc(C(=O)Nc3ccc(C(=O)O)cc3CN3CCCCC3)c(=O)[nH]c12",
    "TESTED ON": "Staphylococcus aureus",
    "VALUE UNITS": "µg/mL",
    "MIC": 4
  }
]

--- query ---
MIC for `CNc1cc(F)cc2cc(C(=O)Nc3ccc(CO)cc3CN(C)C3CCCCC3)c(=O)[nH]c12` ? 4

---

Recorded measurements of MIC, one per entry
tested on: Peptostreptococcus anaerobius; assay: Antibacterial activity against Peptostreptococcus anaerobius ATCC 27337 by CLSI method; format: functional

MIC for `CCC[C@@H]1C[C@@H](C(=O)N[C@@H]([C@H]2O[C@H](SC)[C@H](O)[C@@H](O)[C@H]2O)[C@H](C)Cl)N(C)C1` ? 0.25 mg/L

MIC for `CCCCCN(CCCCC)Cc1cc(C(=O)O)ccc1NC(=O)c1cc2cc(F)cc(NC)c2[nH]c1=O` ? 0.12 mg/L

MIC for `CNc1cc(F)cc2cc(C(=O)Nc3ccc(C(=O)O)cc3CN(CCO)C3CCCCC3)c(=O)[nH]c12.Cl` ? 0.12 mg/L

MIC for `CNc1cc(F)cc2c(O)c(C(=O)Nc3ccc(C(=O)O)cc3)c(=O)[nH]c12` ? 0.06 mg/L

MIC for `CO/N=C(\C(=O)N[C@@H]1C(=O)N2C(C(=O)O)=C(CSc3nc(=O)c(O)nn3C)CS[C@H]12)c1csc(N)n1` ? 0.5 mg/L

---

tested on: Staphylococcus aureus; assay: Antibacterial activity against Staphylococcus aureus ATCC 29213 by CLSI method; type: functional
PROPERTY NAME: MIC (µg/mL)
Value expressed in µg/mL; do not type the unit.

[
  {
    "STRUCTURE": "CNc1cc(F)cc2cc(C(=O)Nc3ccc(C(=O)O)cc3CN(CC(=O)O)C3CCCCC3)c(=O)[nH]c12",
    "TESTED ON": "Staphylococcus aureus",
    "MIC, µg/mL": 32
  },
  {
    "STRUCTURE": "CNc1cc(F)cc2cc(C(=O)Nc3ccc(C(=O)O)cc3CN(CCO)C3CCCCC3)c(=O)[nH]c12.Cl",
    "TESTED ON": "Staphylococcus aureus",
    "MIC, µg/mL": 0.5
  }
]

--- query ---
MIC for `CNc1cc(F)cc2cc(C(=O)Nc3ccc(C(=O)O)cc3CNC3CCCCC3)c(=O)[nH]c12.O=C(O)C(F)(F)F` ? 16
